Molecular target: Jak2 (a.a. 828-1132) (Homo sapiens, UniProt O60674)
Construct: Jak2 (a.a. 828-1132); His tag (N); made in house; host or cells: insect cells (baculovirus)
Sequence (O60674 828-1132): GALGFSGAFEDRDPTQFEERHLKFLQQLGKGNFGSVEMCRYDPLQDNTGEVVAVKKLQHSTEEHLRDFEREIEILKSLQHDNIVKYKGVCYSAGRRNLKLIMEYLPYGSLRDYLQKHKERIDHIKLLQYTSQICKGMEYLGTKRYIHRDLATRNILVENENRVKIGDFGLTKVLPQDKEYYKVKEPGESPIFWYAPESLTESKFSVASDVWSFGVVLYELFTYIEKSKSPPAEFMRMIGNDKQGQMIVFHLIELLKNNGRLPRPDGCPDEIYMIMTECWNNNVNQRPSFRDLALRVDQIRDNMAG
Assay: In vitro JAK kinase assay (HTRF, phosphorylation of biotinylated peptide), JAK2
Type: biochemical
Settings: 1 mM ATP; Examples 1-11; read-out: IC50 (nM) @ 1 mM ATP JAK2
quantity: IC50

Ask: Supply recorded IC50 for Cn1ccc(S(=O)(=O)N2CCN(CC(CF)n3cc(-c4ncnc5[nH]ccc45)cn3)CC2)n1 (racemic) here.
Reply: > 20 nM

Ask: Supply recorded IC50 for N#CCC(CC1CCN(S(=O)(=O)C2CC2)CC1)n1cc(-c2ncnc3[nH]ccc23)cn1 (stereo not drawn) here.
Reply: < 10 nM

Ask: Supply recorded IC50 for CS(=O)(=O)N1CCN(CC(CC#N)n2cc(-c3ncnc4[nH]ccc34)cn2)CC1 (stereo not drawn) here.
Reply: 10 to 20 nM

----------
Below is a list of entries, each paired with its recorded IC50 value.
Molecular target: Jak2 (a.a. 828-1132) (Homo sapiens, UniProt O60674)
Construct: Jak2 (a.a. 828-1132); His tag (N); made in house; host or cells: insect cells (baculovirus)
Experiment: In vitro JAK kinase assay (HTRF, phosphorylation of biotinylated peptide), JAK2
Type: biochemical
Details: 1 mM ATP; Examples 12-91; read-out: JAK2 IC50 (nM) @ 1 mM ATP
Structures can show the parent of a compound that is named as a salt.

INSERT INTO assay_data (molecule, test_value) VALUES
  ('N#CCC(CN1CCN(C(=O)c2ccccn2)CC1)n1cc(-c2ncnc3[nH]ccc23)cn1 (stereo not drawn) [Example 58]', '> 100 nM');

Could you now consider this next molecule?
Ask: Supply recorded IC50 for N#CCC(CN1CCN(C(=O)c2c(F)cc(C#N)cc2F)CC1)n1cc(-c2ncnc3[nH]ccc23)cn1 (stereo not drawn) [Example 15, phosphate Salt] here.
Reply: 50 to 100 nM

----------
Molecular target: Jak2 (a.a. 828-1132) (Homo sapiens, UniProt O60674)
Construct: Jak2 (a.a. 828-1132); His tag (N); made in house; host or cells: insect cells (baculovirus)
Assay: In vitro JAK kinase assay (HTRF, phosphorylation of biotinylated peptide), JAK2
Format: biochemical
Details: 1 mM ATP; Examples 12-91; read-out: JAK2 IC50 (nM) @ 1 mM ATP
quantity: IC50

Solved entries:
INSERT INTO results (compound, test_value) VALUES
  ('N#CCC(CN1CCN(C(=O)c2ccc(F)cn2)CC1)n1ccc(-c2ncnc3[nH]ccc23)c1 (stereo not drawn) [Example 83]', '10 to 50 nM'),
  ('N#CCC(CN1CCN(C(=O)c2cccs2)CC1)n1cc(-c2ncnc3[nH]ccc23)cn1 (stereo not drawn) [Example 42]', '10 to 50 nM'),
  ('N#CCC(CN1CCN(S(=O)(=O)c2cccs2)CC1)n1cc(-c2ncnc3[nH]ccc23)cn1 (stereo not drawn) [Example 67]', '< 10 nM'),
  ('N#CCC(CN1CCN(S(=O)(=O)c2cccnc2)CC1)n1cc(-c2ncnc3[nH]ccc23)cn1 (stereo not drawn) [Example 65]', '10 to 50 nM'),
  ('N#CCC(CN1CCN(C(=O)c2ccc(C(F)(F)F)c(F)c2)CC1)n1cc(-c2ncnc3[nH]ccc23)cn1 (stereo not drawn) [Example 56]', '> 100 nM'),
  ('N#CCC(CN1CCN(C(=O)c2ncc(C#N)cc2F)CC1)n1cc(-c2ncnc3[nH]ccc23)cn1 (stereo not drawn) [Example 17]', '> 100 nM'),
  ('Cc1cc(C(=O)N2CCN(CC(CC#N)n3cc(-c4ncnc5[nH]ccc45)cn3)CC2)ccc1F (stereo not drawn) [Example 37]', '10 to 50 nM'),
  ('N#CCC(CN1CCN(S(=O)(=O)c2ccccc2C(F)(F)F)CC1)n1cc(-c2ncnc3[nH]ccc23)cn1 (stereo not drawn) [Example 66]', '< 10 nM');

Could you now consider this next compound?
Ask: Give IC50 for N#CCC(CN1CCN(S(=O)(=O)c2ccccc2C#N)CC1)n1cc(-c2ncnc3[nH]ccc23)cn1 (stereo not drawn) [Example 60] tested on Jak2 (a.a. 828-1132) (Homo sapiens, UniProt O60674).
Reply: < 10 nM
